Test: Pretargeting: 125-I-hMN-14 × 734 bsAb, 24 h later 99m-Tc-IMP-192, biodistribution
Format: in vivo, Nude mice
Details: female, nude (Taconic NCRNU), mouse, total radioactivity; Blood, 24 h post peptide
Where a SMILES comes first, the peptide text is derived from it. Side-chain parts run from the residue outwards. The star is where a group is joined. DTPA = O=C(O)CN(CCN(CC(=O)O)CC(=O)O)CCN(CC(=O)O)CC(=O)*; X1 = NC(=S)NN=CC(=O)*
measurement-label: tissue uptake at 24 h
Write the figure, then the unit, nothing else.

The molecule identified as CC(=O)N[C@@H](CCCCNC(=O)CN(CCN(CCN(CC(=O)O)CC(=O)O)CC(=O)O)CC(=O)O)C(=O)N[C@@H](Cc1ccc(O)cc1)C(=O)N[C@@H](CCCCNC(=O)CN(CCN(CCN(CC(=O)O)CC(=O)O)CC(=O)O)CC(=O)O)C(=O)N[C@@H](CCCCNC(=O)[C@H](CS)NC(=O)C=NNC(N)=S)C(N)=O [IMP 192] (Ac-K(DTPA)YK(DTPA)K([Cys-X1])-NH2) registered its tissue uptake at 24 h at 0.6 %ID/g

====

Experiment: Clearance of 99m-Tc-IMP-192 in BALB/c mice
Format: in vivo
Conditions: BALB/c, mouse, small intestine, total radioactivity; Small int, 24 h
Where a SMILES comes first, the peptide text is derived from it. Side-chain parts run from the residue outwards. The star is where a group is joined. DTPA = O=C(O)CN(CCN(CC(=O)O)CC(=O)O)CCN(CC(=O)O)CC(=O)*; X1 = NC(=S)NN=CC(=O)*
measurement-label: tissue uptake at 24 h

The molecule identified as CC(=O)N[C@@H](CCCCNC(=O)CN(CCN(CCN(CC(=O)O)CC(=O)O)CC(=O)O)CC(=O)O)C(=O)N[C@@H](Cc1ccc(O)cc1)C(=O)N[C@@H](CCCCNC(=O)CN(CCN(CCN(CC(=O)O)CC(=O)O)CC(=O)O)CC(=O)O)C(=O)N[C@@H](CCCCNC(=O)[C@H](CS)NC(=O)C=NNC(N)=S)C(N)=O [IMP 192] (Ac-K(DTPA)YK(DTPA)K([Cys-X1])-NH2) registered its tissue uptake at 24 h at 0.03 %ID/g

====

Assay: Control group: clearance of 111-In-indium-IMP-156 alone
Type: in vivo, nude mice
Conditions: female, NCRNU nude, mouse, total radioactivity, Blood
Where a SMILES comes first, the peptide text is derived from it. The star is where a group is joined. DTPA = O=C(O)CN(CCN(CC(=O)O)CC(=O)O)CCN(CC(=O)O)CC(=O)*
measurement-label: tissue uptake at 3 h
Write the figure, then the unit, nothing else.

The compound identified as CC(=O)N[C@@H](Cc1ccccc1)C(=O)N[C@@H](CCCCNC(=O)CN(CCN(CCN(CC(=O)O)CC(=O)O)CC(=O)O)CC(=O)O)C(=O)N[C@@H](Cc1ccc(O)cc1)C(=O)N[C@@H](CCCCNC(=O)CN(CCN(CCN(CC(=O)O)CC(=O)O)CC(=O)O)CC(=O)O)C(N)=O [IMP 156, Ac-Phe-Lys(DTPA)-Tyr-Lys(DTPA)-NH2] (Ac-FK(DTPA)YK(DTPA)-NH2) registered its tissue uptake at 3 h at 0.05 %ID/g
